Listing: apparent KD of MS2 coat protein of selected sequences
Tested on: MS2 coat protein
ASSAY_REMARKS: apparent KD of MS2 coat protein, switch ON state; designed switch direction (-1 OFF switch, 1 ON switch): -1; higher = weaker reporter binding
MEASUREMENT_CONDITIONS: FMN input: 0 or 200 uM; Eterna round: R93 (includes R88 designs)
METRIC: apparent KD of MS2 coat protein (nM)

>>> quantitative_result("AGCUAGUGAGGAUAUACAAGAAUAUAAACAAAAAUGAAGGGACAUGAGGAUCACCCAUGUAGAAGGCACUAGCA [Diamond 72]")
55.2
>>> quantitative_result("AAAAAUGGAGGAUAUACAUGAGGAUCACCCAUGUGUAACUAUACUAAGCACACCUCACGUAGAAGGCCAAAAAA [Gilly Gone Silly 12 - Jieux - Exclusion 3]")
105
>>> quantitative_result("CAGUACUGAGGAUAUACAUGAGGAUCACCCAUGUGUAAAAGCUAGGAAACUAGCACAUGUAGAAGGCAGUACUG [Ex3: 815]")
48.3
>>> quantitative_result("AAAAAGUGAGGAUAUACGCUGAAGAGUAGACACAACCAGGCGUAGAAGGCACAUGAGGAUCACCCAUGUACAAA [Ex4 Malc#9]")
28.6
>>> quantitative_result("AAAAAGAGAGGAUAUACAUGAGGAUCACCCAUGUGACAUUAAAUAAAUAAAAUAAAGUGUAGAAGGCUCAAAAA [65%, Moding Exclusion3-cac2, 23]")
38.1
>>> quantitative_result("AACAUGUCAGGAUAUUUAAGAAAAGAAAAGAAAGAAAAGAAAAAGAAGGGACAUGAGGAUCACCCAUGUAAGAA [EteRNA is fun!]")
117
>>> quantitative_result("GAAAAGUGAGGAUAUGUCAAAAGUCACAAAAGUGACAAAAGACAGAAGGCACAUGAGGAUCACCCAUGUGAAAA [Mat - Exaclusion 4 - Eli mod - D55]")
24.2
>>> quantitative_result("GGGUAACAUGAGGAUCACCCAUGUGAGGAUAUGCUAGGGAUGGAAGCCAGGCCAAAAAGCAGAAGGUACUAAAG [Janelle Amethyst 18 Mod 16 - Jieux - Exclusion 1]")
23.6
>>> quantitative_result("AAAAAACAUGAGGAUCACCCAUGUCAGGAUAUCGAAAGAAAAAAAAAGAAAGAAAAAACGAGAAGGGACAAAAA [Amethyst 29]")
20.1
>>> quantitative_result("AACAUACAUGAGGAUCACCCAUGUUAGGAUAUGCCGGGUUAGAGCCAACUAAAAAACCGUAGAAGGGACGAAAA [Bilbo Confounded 10 - Jieux - Exclusion 1]")
30.7
>>> quantitative_result("GAAAAGUCAGGAUAUAUAGGAAAAAUAAAAAAAAUAAAACUAUAGAAGGGACAUGAGGAUCACCCAUGUUAAAG [Mat - Exclusion 4 - Mayanna - D132]")
44.5
>>> quantitative_result("GGUUGAUGAGGAUAUACAUGAGGAUCACCCAUGUGAGAGAAAAAAGUGAGAAAGAAAAGUAGAAGGCAUUGACG [salish99-ex3-60]")
37.7
>>> quantitative_result("AAAAAACAUGAGGAUCACCCAUGUAAGGAUAUGUAAAAUAAAAGAAAAAUAAAGAAAAGCAGAAGGUACAUGGA [JL wbt mod 15]")
54.9
>>> quantitative_result("CUUAAGUCAGGAUAUGUCAAAAGUCACAAAAGUGACAAAAGACAGAAGGGACAUGAGGAUCACCCAUGUAAAAA [Starry Exclusion 4.5 (starryjess round 1 mod)]")
78.3
>>> quantitative_result("AGCUAGUGAGGAUAUACGAACAUGUCAAAAGACUGUAAGGGACAUGAGGAUCACCCAUGUAGAAGGCACUAGCA [Diamond 55]")
55.7
>>> quantitative_result("AAGAAGUCAGGAUAUGUCUGUGCGAAAAAAAAAAAGUGCAGACAGAAGGGACAUGAGGAUCACCCAUGUGGAAA [Florian 65% 7]")
46.8
>>> quantitative_result("GCUUGGCUAGGAUAUACAUGAGGAUCACCCAUGUGAGAGAAAAAAGUGAGAAAGAAAAGUAGAAGGAGUUGAGG [salish99-ex3-82]")
46.2
>>> quantitative_result("CUGGUGUCAGGAUAUGCAUAGCAGUGACCAAAACCCGGUCAGCAGAAGGGACAUGAGGAUCACCCAUGUUAAAG [Alatele]")
22.3
>>> quantitative_result("AAAAAUGGAGGAUAUACAUGAGGAUCACCCAUGUGUGGCCAUACUAUGUGGGCGUCAGGUAGAAGGCCAAAAAA [Gilly Gone Silly 24 - Jieux - Exclusion 3]")
22.3
>>> quantitative_result("AAAAAACAUGAGGAUCACCCAUGUGAGGAUAUGCUAUGGAAAUAAAAAAUAAAACAUAGCAGAAGGCACACCAA [Mat - Exclusion 1 - Eli mod - D44]")
31
>>> quantitative_result("AGUUGGCGAGGAUAUACAUGAGGAUCACCCAUGUGAGAGAUAAAAGUGAGAAAGAAAAGUAGAAGGCGCUCACA [JL Lego Mod 15]")
107
>>> quantitative_result("AGCUAGCUAGGAUAUACGAACAUGUCAAAAGACGUGAAGGGACAUGAGGAUCACCCAUGUAGAAGGAGCUAGCA [JL 74% mod 6]")
28.7
>>> quantitative_result("ACAAGAUCAGGAUAUACAUGAGGAUCACCCAUGUGAAAGAACGAUUAACGACCAGCAAGUAGAAGGGAUCAGGA [Ruby 82]")
20.5
>>> quantitative_result("AAGAAGGUAGGAUAUACAAAAUAAAAGAAAAGAAAGAAAGAACAUGAGGAUCACCCAUGUAGAAGGGCCAAGAA [Khendjer]")
84.2
>>> quantitative_result("AAAAAGUGAGGAUAUAGCAAAGGUCACGAAAGUGACAAAGGCUAGAAGGCACAUGAGGAUCACCCAUGUCCAAA [Fiskers Exclusion 4 D2 63% 2]")
24.7

Provenance of the data: the supplement of paper PMC9170038
